The origin of these recorded values is patent US11485733B2.

- System Tested: C. elegans Slo-1a (Caenorhabditis elegans, UniProt Q95V25)
- Sequence (Q95V25 whole entry): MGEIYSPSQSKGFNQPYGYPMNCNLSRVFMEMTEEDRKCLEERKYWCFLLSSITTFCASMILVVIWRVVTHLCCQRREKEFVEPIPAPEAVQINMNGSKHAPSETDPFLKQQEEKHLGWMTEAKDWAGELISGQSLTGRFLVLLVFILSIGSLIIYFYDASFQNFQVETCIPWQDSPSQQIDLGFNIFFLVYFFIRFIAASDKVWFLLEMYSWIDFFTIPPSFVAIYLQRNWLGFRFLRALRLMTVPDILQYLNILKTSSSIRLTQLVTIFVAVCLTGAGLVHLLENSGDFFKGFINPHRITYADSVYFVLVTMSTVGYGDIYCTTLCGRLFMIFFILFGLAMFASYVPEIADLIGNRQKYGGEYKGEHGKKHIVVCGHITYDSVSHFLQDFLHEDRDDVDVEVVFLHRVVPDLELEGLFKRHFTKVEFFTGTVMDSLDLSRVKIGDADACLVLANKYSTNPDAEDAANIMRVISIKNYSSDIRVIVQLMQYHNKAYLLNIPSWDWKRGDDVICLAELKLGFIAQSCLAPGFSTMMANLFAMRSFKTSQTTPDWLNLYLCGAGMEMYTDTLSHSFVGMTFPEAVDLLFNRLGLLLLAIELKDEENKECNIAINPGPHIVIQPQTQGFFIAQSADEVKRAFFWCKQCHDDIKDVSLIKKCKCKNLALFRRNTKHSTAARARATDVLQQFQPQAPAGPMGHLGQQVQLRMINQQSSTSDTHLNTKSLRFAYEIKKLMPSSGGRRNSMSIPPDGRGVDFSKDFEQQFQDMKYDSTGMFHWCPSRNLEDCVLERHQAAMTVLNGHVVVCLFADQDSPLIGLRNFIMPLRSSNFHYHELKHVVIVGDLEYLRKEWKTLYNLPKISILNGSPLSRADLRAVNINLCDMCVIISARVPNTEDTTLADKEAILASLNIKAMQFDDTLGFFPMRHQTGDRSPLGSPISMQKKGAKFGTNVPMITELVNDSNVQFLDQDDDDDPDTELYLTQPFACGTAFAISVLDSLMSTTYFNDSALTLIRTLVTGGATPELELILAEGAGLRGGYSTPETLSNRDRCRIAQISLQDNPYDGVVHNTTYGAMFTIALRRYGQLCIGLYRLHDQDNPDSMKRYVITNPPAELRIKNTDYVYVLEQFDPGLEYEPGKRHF
- Experimental Parameters: pE50 (negative decadic logarithm of EC50), CHO cells expressing C. elegans Slo-1a; voltage sensitive dye, 70 mM KCl
Consider the following molecules and their measured EC50 readings.
Observation Type: EC50

compound_structure_string=CN(C)c1c(C(=O)N[C@H]2CCOc3ccccc32)cnc2c(-c3cc(Cl)cc(Cl)c3)ncnc12 system_tested="C. elegans Slo-1a (Caenorhabditis elegans, UniProt Q95V25)" result="3.16 to 31.6 nM"
compound_structure_string=COc1c(C(=O)N[C@H]2CCOc3ccccc32)nnc2c(-c3cccc(Cl)c3Cl)cccc12 system_tested="C. elegans Slo-1a (Caenorhabditis elegans, UniProt Q95V25)" result="< 3.16 nM"
compound_structure_string=CN(C)c1c(C(=O)N[C@H]2CCOc3ccccc32)cnc2c(-c3cc(Cl)cc(Cl)c3)cncc12 system_tested="C. elegans Slo-1a (Caenorhabditis elegans, UniProt Q95V25)" result="3.16 to 31.6 nM"
compound_structure_string=O=C(N[C@H]1CCOc2ccccc21)c1cnc2c(-c3cc(Cl)cc(Cl)c3)ncnc2c1N1CCOCC1 system_tested="C. elegans Slo-1a (Caenorhabditis elegans, UniProt Q95V25)" result="3.16 to 31.6 nM"
compound_structure_string=CN(C)c1c(C(=O)N[C@H]2CCOc3ccccc32)nnc2c(-c3cccc(Cl)c3)cccc12 system_tested="C. elegans Slo-1a (Caenorhabditis elegans, UniProt Q95V25)" result="3.16 to 31.6 nM"
compound_structure_string=COc1c(C(=O)N[C@H]2CCOc3ccccc32)nnc2c(-c3cc(Cl)cc(Cl)c3)cccc12 system_tested="C. elegans Slo-1a (Caenorhabditis elegans, UniProt Q95V25)" result="3.16 to 31.6 nM"
compound_structure_string=CN(C)c1c(C(=O)N[C@H]2CCOc3ccccc32)cnc2c(-c3cccc(Cl)c3Cl)cnnc12 system_tested="C. elegans Slo-1a (Caenorhabditis elegans, UniProt Q95V25)" result="3.16 to 31.6 nM"
compound_structure_string=COc1c(C(=O)N[C@H]2CCOc3ccccc32)nnc2c(-c3cccc(Cl)c3)cccc12 system_tested="C. elegans Slo-1a (Caenorhabditis elegans, UniProt Q95V25)" result="3.16 to 31.6 nM"
compound_structure_string=O=C(N[C@H]1CCOc2ccccc21)c1cnc2c(-c3cccc(Cl)c3Cl)nccc2c1 system_tested="C. elegans Slo-1a (Caenorhabditis elegans, UniProt Q95V25)" result="31.6 to 316 nM"
compound_structure_string=CN(C)c1c(C(=O)N[C@H]2CCOc3ccccc32)nnc2c(-c3ccc(F)c(F)c3)cccc12 system_tested="C. elegans Slo-1a (Caenorhabditis elegans, UniProt Q95V25)" result="31.6 to 316 nM"
compound_structure_string=COc1c(C(=O)N[C@H]2CCOc3ccccc32)nnc2c(-c3ccc(F)c(F)c3)cccc12 system_tested="C. elegans Slo-1a (Caenorhabditis elegans, UniProt Q95V25)" result="3.16 to 31.6 nM"
compound_structure_string=CN(C)c1c(C(=O)N[C@H]2CCOc3ccccc32)cnc2c(-c3cccc(Cl)c3Cl)cncc12 system_tested="C. elegans Slo-1a (Caenorhabditis elegans, UniProt Q95V25)" result="3.16 to 31.6 nM"
compound_structure_string=COc1ncc(-c2cccc(Cl)c2Cl)c2ncc(C(=O)N[C@H]3CCOc4ccccc43)c(N3CCOCC3)c12 system_tested="C. elegans Slo-1a (Caenorhabditis elegans, UniProt Q95V25)" result="< 3.16 nM"
compound_structure_string=COc1cnc(-c2cccc(Cl)c2Cl)c2ncc(C(=O)N[C@H]3CCOc4ccccc43)c(N(C)C)c12 system_tested="C. elegans Slo-1a (Caenorhabditis elegans, UniProt Q95V25)" result="3.16 to 31.6 nM"
compound_structure_string=CN(C)c1c(C(=O)N[C@H]2CCOc3ccccc32)nnc2c(-c3cc(Cl)cc(Cl)c3)cccc12 system_tested="C. elegans Slo-1a (Caenorhabditis elegans, UniProt Q95V25)" result="< 3.16 nM"
compound_structure_string=CN(C)c1c(C(=O)N[C@H]2CCOc3ccccc32)cnc2c(-c3cc(Cl)cc(Cl)c3)nccc12 system_tested="C. elegans Slo-1a (Caenorhabditis elegans, UniProt Q95V25)" result="3.16 to 31.6 nM"
compound_structure_string=O=C(N[C@H]1CCOc2ccccc21)c1cnc2c(-c3cccc(Cl)c3Cl)ncc(F)c2c1N1CCOCC1 system_tested="C. elegans Slo-1a (Caenorhabditis elegans, UniProt Q95V25)" result="< 3.16 nM"
compound_structure_string=COc1ncc(-c2cccc(Cl)c2Cl)c2ncc(C(=O)N[C@H]3CCOc4ccccc43)c(N(C)C)c12 system_tested="C. elegans Slo-1a (Caenorhabditis elegans, UniProt Q95V25)" result="< 3.16 nM"
compound_structure_string=CN(C)c1c(C(=O)N[C@H]2CCOc3ccccc32)nnc2c(-c3cccc(Cl)c3Cl)cccc12 system_tested="C. elegans Slo-1a (Caenorhabditis elegans, UniProt Q95V25)" result="< 3.16 nM"
compound_structure_string=O=C(N[C@H]1CCOc2ccccc21)c1cnc2c(-c3cccc(Cl)c3Cl)cnnc2c1N1CCOCC1 system_tested="C. elegans Slo-1a (Caenorhabditis elegans, UniProt Q95V25)" result="31.6 to 316 nM"
compound_structure_string=COc1cnc(-c2cccc(Cl)c2Cl)c2ncc(C(=O)N[C@H]3CCOc4ccccc43)c(N3CCOCC3)c12 system_tested="C. elegans Slo-1a (Caenorhabditis elegans, UniProt Q95V25)" result="3.16 to 31.6 nM"
compound_structure_string=CN(C)c1c(C(=O)N[C@H]2CCOc3ccccc32)cnc2c(-c3cc(Cl)cc(Cl)c3)cnnc12 system_tested="C. elegans Slo-1a (Caenorhabditis elegans, UniProt Q95V25)" result="3.16 to 31.6 nM"
compound_structure_string=O=C(N[C@H]1CCOc2ccccc21)c1cnc2c(-c3cccc(Cl)c3Cl)cncc2c1N1CCOCC1 system_tested="C. elegans Slo-1a (Caenorhabditis elegans, UniProt Q95V25)" result="3.16 to 31.6 nM"
compound_structure_string=CN(C)c1c(C(=O)N[C@H]2CCOc3ccccc32)cnc2c(-c3cccc(Cl)c3Cl)ncc(F)c12 system_tested="C. elegans Slo-1a (Caenorhabditis elegans, UniProt Q95V25)" result="3.16 to 31.6 nM"
compound_structure_string=O=C(N[C@H]1CCOc2ccccc21)c1cnc2c(-c3cc(Cl)cc(Cl)c3Cl)nccc2c1N1CCOCC1 system_tested="C. elegans Slo-1a (Caenorhabditis elegans, UniProt Q95V25)" result="< 3.16 nM"
compound_structure_string=COc1cnc(-c2cc(F)cc(F)c2F)c2ncc(C(=O)N[C@H]3CCOc4ccccc43)c(N3CCOCC3)c12 system_tested="C. elegans Slo-1a (Caenorhabditis elegans, UniProt Q95V25)" result="3.16 to 31.6 nM"
compound_structure_string=O=C(N[C@H]1CCOc2ccccc21)c1cnc2c(-c3cc(Cl)cc(Cl)c3)nccc2c1N1CCOCC1 system_tested="C. elegans Slo-1a (Caenorhabditis elegans, UniProt Q95V25)" result="3.16 to 31.6 nM"
compound_structure_string=O=C(N[C@H]1CCOc2ccccc21)c1cnc2c(-c3cc(Cl)cc(Cl)c3)cncc2c1N1CCOCC1 system_tested="C. elegans Slo-1a (Caenorhabditis elegans, UniProt Q95V25)" result="3.16 to 31.6 nM"
compound_structure_string=CN(C)c1c(C(=O)N[C@H]2CCOc3ccccc32)cnc2c(-c3cccc(Cl)c3Cl)nccc12 system_tested="C. elegans Slo-1a (Caenorhabditis elegans, UniProt Q95V25)" result="3.16 to 31.6 nM"

---

Consider the following molecules and their measured EC50 readings.
- Test system: Dirofilaria immitis
- Procedure Text: Dirofilaria immitis (DIROIM L4) larval motility
- Experimental Parameters: 72 h, read-out: EC50 (reduction of motility)
Observation Type: EC50

compound_structure_string=O=C(N[C@H]1CCOc2ccccc21)c1cnc2c(-c3cccc(Cl)c3Cl)c(F)cnc2c1N1CCOCC1 system_tested="Dirofilaria immitis" observation_type=EC50 result="< 0.1 mg/L"
compound_structure_string=CN(C)c1c(C(=O)N[C@H]2CCOc3ccccc32)cnc2c(-c3cc(Cl)cc(Cl)c3)cncc12 system_tested="Dirofilaria immitis" observation_type=EC50 result="< 0.1 mg/L"
compound_structure_string=CN(C)c1c(C(=O)N[C@H]2CCOc3ccccc32)cnc2c(-c3cc(Cl)cc(Cl)c3)nccc12 system_tested="Dirofilaria immitis" observation_type=EC50 result="< 0.1 mg/L"
compound_structure_string=COc1ncc(-c2cc(Cl)cc(Cl)c2)c2ncc(C(=O)N[C@H]3CCOc4ccccc43)c(N3CCOCC3)c12 system_tested="Dirofilaria immitis" observation_type=EC50 result="< 0.1 mg/L"

---

- System Tested: D. immitis Slo-1 (Dirofilaria immitis, UniProt I0DFK5)
- Sequence (I0DFK5 1-1119): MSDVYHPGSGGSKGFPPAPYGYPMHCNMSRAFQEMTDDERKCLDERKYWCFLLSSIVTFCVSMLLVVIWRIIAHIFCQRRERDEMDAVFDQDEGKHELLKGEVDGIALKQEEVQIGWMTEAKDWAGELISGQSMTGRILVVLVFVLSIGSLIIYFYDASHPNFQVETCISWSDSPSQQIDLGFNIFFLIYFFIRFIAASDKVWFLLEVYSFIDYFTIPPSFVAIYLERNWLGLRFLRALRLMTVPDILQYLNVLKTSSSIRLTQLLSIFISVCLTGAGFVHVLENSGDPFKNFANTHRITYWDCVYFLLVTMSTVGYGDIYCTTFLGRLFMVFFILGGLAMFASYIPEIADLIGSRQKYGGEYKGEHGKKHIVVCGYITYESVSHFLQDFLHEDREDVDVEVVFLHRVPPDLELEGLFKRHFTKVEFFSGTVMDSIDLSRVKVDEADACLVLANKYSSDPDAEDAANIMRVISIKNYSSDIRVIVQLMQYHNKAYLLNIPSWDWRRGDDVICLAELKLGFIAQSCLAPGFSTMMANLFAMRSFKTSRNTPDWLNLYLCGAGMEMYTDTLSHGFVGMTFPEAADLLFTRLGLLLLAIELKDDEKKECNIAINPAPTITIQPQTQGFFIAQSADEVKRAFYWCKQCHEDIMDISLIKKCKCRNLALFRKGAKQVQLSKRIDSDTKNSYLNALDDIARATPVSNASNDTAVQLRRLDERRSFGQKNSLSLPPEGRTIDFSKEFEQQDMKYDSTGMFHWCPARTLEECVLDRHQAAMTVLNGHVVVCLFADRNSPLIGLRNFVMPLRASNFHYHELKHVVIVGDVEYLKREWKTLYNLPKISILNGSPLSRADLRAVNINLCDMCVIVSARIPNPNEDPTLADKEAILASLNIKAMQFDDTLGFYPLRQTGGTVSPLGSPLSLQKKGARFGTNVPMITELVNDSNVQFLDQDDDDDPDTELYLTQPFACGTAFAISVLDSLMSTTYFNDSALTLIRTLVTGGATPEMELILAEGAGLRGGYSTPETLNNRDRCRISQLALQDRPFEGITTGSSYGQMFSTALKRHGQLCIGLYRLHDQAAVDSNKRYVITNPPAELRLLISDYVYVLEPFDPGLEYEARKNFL
- Procedure Text: D. immitis Slo-1, action at a recombinant CHO cell line (membrane potential, FLIPR)
pEC50: −log10 of the molar value.
Observation Type: pEC50

compound="COc1c(C(=O)N[C@H]2CCOc3ccccc32)nnc2c(-c3cccc(Cl)c3Cl)cccc12 [Example T5-7]" result="6.50 to 7.50"
compound="O=C(N[C@H]1CCOc2ccccc21)c1cnc2c(-c3cccc(Cl)c3Cl)cncc2c1N1CCOCC1 [Example T2-3]" result="7.50 to 8.50"
compound="CN(C)c1c(C(=O)N[C@H]2CCOc3ccccc32)nnc2c(-c3ccc(F)c(F)c3)cccc12 [Example T5-4]" result="6.50 to 7.50"
compound="O=C(N[C@H]1CCOc2ccccc21)c1cnc2c(-c3cc(Cl)cc(Cl)c3)ncnc2c1N1CCOCC1 [Example T4-2]" result="6.50 to 7.50"
compound="COc1ncc2c(N(C)C)c(C(=O)N[C@H]3CCOc4ccccc43)cnc2c1-c1cccc(Cl)c1Cl [Example T2-7]" result="7.50 to 8.50"
compound="O=C(N[C@H]1CCOc2ccccc21)c1cnc2c(-c3cc(Cl)cc(Cl)c3)cnnc2c1N1CCOCC1 [Example T6-4]" result="6.50 to 7.50"
compound="CN(C)c1c(C(=O)N[C@H]2CCOc3ccccc32)cnc2c(-c3cc(Cl)cc(Cl)c3)c(Cl)cnc12 [Example T3-7]" result="7.50 to 8.50"
